Provide the reported IC50 at 48 h of each item.
# ASSAY_REMARKS: Cytotoxicity on healthy cells, CCK8 cell viability
# Assay type: cell-based, mouse
# CONDITION: mouse, L929 mouse fibroblast cells, L929, 48 h; read-out: Cytotoxic activity IC50
Field: numeric (µM). Do not append units.

Query :: Report IC50 at 48 h for O=c1[nH]cc(F)c(=O)[nH]1 [5‐FU, 5‐Fluorouracil, reference compound] please.
Result :: 33

Query :: Report IC50 at 48 h for COc1ccc(/C=C(\C#N)c2cc(C(F)(F)F)cc(C(F)(F)F)c2)cc1 please.
Result :: 391

====

# Tested on: mouse fibroblast cells (L929, CCL‐1)
# ASSAY_REMARKS: Cytotoxicity on healthy cells, CCK8 cell viability
# Type: cell-based
# CONDITION: L929, 24 h, 31.25 μM
Provide the reported decrease in cell viability of each item.
Field: numeric (%). Do not append units.

Query :: Report decrease in cell viability for O=c1[nH]cc(F)c(=O)[nH]1 [5‐FU, 5‐Fluorouracil, reference compound] please.
Result :: 45

Query :: Report decrease in cell viability for COc1ccc(/C=C(\C#N)c2cc(C(F)(F)F)cc(C(F)(F)F)c2)cc1 please.
Result :: 8

Query :: Report decrease in cell viability for COc1ccc(C=C(C#N)c2ccccc2)cc1 please.
Result :: 13

Query :: Report decrease in cell viability for COc1ccc(/C=C(\C#N)c2ccc(F)cc2)cc1 please.
Result :: 45

This collection of values is drawn from paper PMC12598805.
